- Tested on: SNB-19
- ASSAY REMARKS: NCI tumour cell line growth inhibition, 48 h
Activity calls are given as the source filed them. No stated cut-off is given here; in the data, active = GI50 up to about 1.1 µM and inactive = higher.
QUANTITY NAME: GI50

O=C(CC(=O)Nc1ccccc1)NNC(Sc1ccccc1)c1cc(/N=N/c2ccc(Br)cc2)ccc1O (stereo unspecified) | > 10 µM (inactive)

Give me GI50 for each of these compounds, listed below.
1. O=C1CC(c2ccc[nH]2)=NN1c1ccccc1
2. COC(=O)C1C(O)CCC2CN3CCc4c([nH]c5cccc(OC)c45)C3CC21 (stereo unspecified)
3. O=C1/C(=C\c2ccccc2)C(NC2CCCCC2)c2ccccc21 (stereo unspecified)
4. C=CCCCN1C(=O)C2C3c4ccccc4C(C=O)(c4ccccc43)C2C1=O (stereo unspecified)
5. COC(=O)n1c(C)c(C=O)c2ccc(OC)cc21

Result string:
1: > 100 µM (inactive); 2: > 100 µM (inactive); 3: 10.5 µM (inactive); 4: 13.1 µM (inactive); 5: 42.7 µM (inactive)

Give me GI50 for each of these compounds, listed below.
1. CC1C2CC(CC2=O)C1(C)C (stereo unspecified)
2. CCOC(=O)C1=COC(C)(CCc2ccccc2)CC1=O (stereo unspecified)
3. CC(C)=CCC[C@@H](C)C1=C(O)C(=O)C(C)=C(N[C@H](C)c2ccccc2)C1=O
4. O=C(O)C(=Cc1ccc(-c2ccccc2)cc1)C(=O)O
5. CCC[C@H]1O[C@@H]2CC(=O)O[C@@H]2C2=C1C(=O)C=CC2=O

Result string:
1: > 100 µM (inactive); 2: 56.2 µM (inactive); 3: 6.07 µM (inactive); 4: 13.6 µM (inactive); 5: > 60.4 µM (inactive)
